Please provide measured Resistance Factor W574L for the entries that follow.
- assayedTarget: Arabidopsis thaliana W574L-mutant ALS (Arabidopsis thaliana, UniProt P17597, E575Q/W574L)
- Construct: vector-encoded N-terminal fusion of pET-32a(+) (Trx/His/S tag by own knowledge); made in house; host or cells: Escherichia coli AD494
- assayProtocol: biochemical
- conditionsUsed: relative to WT; from measured pI50

Briefly, Resistance Factor W574L measured for COCc1cnc(C2=NC(C)(C(C)C)C(=O)N2)c(C(=O)O)c1 (stereo not shown) : >25

For `CCS(=O)(=O)c1nc2ccccn2c1S(=O)(=O)NC(=O)Nc1nc(OC)cc(OC)n1` the compound record lists Resistance Factor W574L as >3981

Resistance Factor W574L reading for `COc1cc(OC)n2nc(NS(=O)(=O)c3c(C(F)(F)F)ccnc3OC)nc2n1` : >39810

For record `COc1cc(OC)nc(NC(=O)NS(=O)(=O)c2ncccc2C(=O)N(C)C)n1` the listed Resistance Factor W574L is >794
